assay_comment: Pharmacokinetics (biodistribution 1-24 h) in non-tumor bearing mice
Format: in vivo
particulars: female, BALB/c, mouse, liver, 200 umol, total radioactivity; 1 hour after injection, ^61Cu; read-out: Biodistribution Liver
parameter_measured: tissue uptake at 1 h (%ID/g)

compound="C[C@@H](O)[C@@H]1NC(=O)[C@H](CCCCN)NC(=O)[C@@H](Cc2c[nH]c3ccccc23)NC(=O)[C@H](Cc2ccc(O)cc2)NC(=O)[C@@H](NC(=O)[C@@H](Cc2ccccc2)NC(=O)CCC(C(=O)O)N2CCN(CC(=O)O)CCN(CC(=O)O)CC2)CSSC[C@@H](C(=O)N[C@H](CO)[C@@H](C)O)NC1=O (single isomer, unassigned) [[^61/^64Cu]Cu-NODAGA-TOC, metal not drawn]" unit_tag=%ID/g measured_result=0.35
